I'd appreciate it if you could supply Phage binding ELISA signal, Anti-PSMA Fab in presence of PSMA values for the items below.
Target: T1, PSMA Fab (006 PSMA Fab) (biotinylated (site not stated))
T1 construct: also called Anti-PSMA Fab
Experiment: clonal phage ELISA on plate-captured biotinylated PSMA Fab pre-incubated with PSMA antigen as competitor, anti-M13 HRP detection
Give bare numbers.

Worked examples follow.
{"Binder": "PEIRCAPLWMCVGF [Phage-3829]", "Measured Number": 0.0725}
{"Binder": "DPVWCIPQWMCEGF [Phage-3837]", "Measured Number": 0.0652}
{"Binder": "NYNACVPIWMCEGF [Phage-3839]", "Measured Number": 0.104}
{"Binder": "VGIRCEPAWMCEGF [Phage-3833]", "Measured Number": 0.0645}
{"Binder": "GMKTCVPAWMCVGF [Phage-3831]", "Measured Number": 0.08}
{"Binder": "PPRACVPSWMCTGF [Phage-3830]", "Measured Number": 0.0854}
{"Binder": "SEMRCSPPWMCYGF [Phage-3841]", "Measured Number": 0.0822}
{"Binder": "SDYMCRPSWMCEGL [Phage-3838]", "Measured Number": 0.0632}
{"Binder": "VLHKCLPTWMCNGF [Phage-3836]", "Measured Number": 0.0967}
{"Binder": "VDRVCIPTWMCEGI [Phage-3834]", "Measured Number": 0.0575}

Give me Phage binding ELISA signal, Anti-PSMA Fab in presence of PSMA for each of these binders, listed below.
1. IDRHCIPAWMCEQF [Phage-3828]
2. TSVLCQPLWMCSGF [Phage-3832]

1: 0.0571; 2: 0.0785

Requested field: Phage binding ELISA signal, Anti-PSMA Fab in presence of PSMA. Item: PYSICKPDWMCTGL [Phage-3840] 0.0653
